selectivity ratio values, listed per item
test: Selectivity index, ratio of IC50 for human MRC5 cells to IC50 for nifurtimox-sensitive amastigotes of Trypanosoma cruzi; format: toxicity, cell-based; settings: read-out: Ratio IC50
Quick one: just the number, no unit, thanks!

Worked examples, 2 compounds total:
INSERT INTO assay_data (compound, experimentalresult) VALUES
  ('COC(=O)C1=NN(c2ccccc2)[C@@H]2N1c1ccccc1N1C(C(=O)OC)=NN(c3ccccc3)[C@@]21C (racemic)', 6),
  ('CCOC(=O)C1=NN(c2ccc(Cl)cc2)C2C3N(c4ccc(Cl)cc4)N=C(C(=O)OCC)N3c3ccccc3N12 (stereo in doubt; 4g)', 6);

Alright, here's another compound for you.
Data request: # input compound: COC(=O)C1=NN(c2ccccc2)C2C3N(c4ccccc4)N=C(C(=O)OC)N3c3ccccc3N12 (stereo in doubt; 4d) ; wanted: its selectivity ratio
Data returned: 6
